Assay: NCI Yeast Anticancer Drug Screen. Data for the rad50EPP+ strain (AID 151);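 further: 0% = growth of vehicle-treated control cultures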
Conditions: S. cerevisiae rad50 mutant strain, at 1.2 µM, stronger effect = higher value
About 79,000 compounds went through this panel and 15% of them were active in at least one assay; those are over-represented in the sample as a whole.
Answer each item with its documented growth inhibition.
# number only, unit % dropped from output

Q) Dear colleague, I am looking for the recorded growth inhibition of the following compound: `O=C1C=CC(=C(c2ccccc2)c2ccccc2)c2ccccc21`
A) 9

Q) Quick one: Cc1cccc2c(C(O)CBr)cc(-c3ccc(Cl)cc3)nc12 (stereo not given)
A) 1

Q) Try this compound next: `Oc1c(Br)cc(Br)cc1C1CCCCC1`
A) 9

Q) Thanks! And CCOC(=O)C(NC(=O)c1ccccc1)(N1CCN(c2cc3c(cc2F)c(=O)c(C(=O)O)cn3C2CC2)CC1)C(F)(F)F (stereo not given) ?
A) -1

Q) Ok, now `CC(=O)Oc1cc(-c2cc(OC(C)=O)c(OC(C)=O)c3ccccc23)c2ccccc2c1OC(C)=O`
A) 3

----------
Assay: NCI Yeast Anticancer Drug Screen. Data for the bub3 strain (AID 167)
Settings: S. cerevisiae bub3 mutant strain, at 100.0 µM, stronger effect = higher value
This is part of a sample that, as a whole, favours compounds with a hit. Of some 79,000 tested, about 15% had one in any assay.
Would you mind telling me the reported growth inhibition of each entry?
# output: bare number, implied unit %

Q) Report growth inhibition for `CCOC(=O)c1cc(-c2ccc(Cl)cc2)c([N+](=O)[O-])n1C` please.
A) 95

Q) Same for `Cc1cc(S(=O)(=O)/N=C(/NN)NNc2cccc(C(F)(F)F)n2)c(S)cc1Cl`
A) 12

Q) Can you check `O=C1c2ccccc2-c2nc3ccccc3nc21` next?
A) 66

Q) Param item: `CCN(CC)C(C)(C)C(=O)/C=C/c1ccccc1`
A) -5

Q) Subsequent entry: `COc1ccc2nc3c([N+](=O)[O-])ccc(NCCN(C)C)c3c(NCCN(C)C)c2c1`
A) -3

Q) Now the compound `CCCCCCCCCCNC(=O)OCC`
A) 99

Q) Further, for `CCOC(=O)c1cnc2c(C(F)(F)F)cccc2c1N=[N+]=[N-]` ?
A) 92

Q) Same again, this time with CC(CC(C)(C)[N+](C)(C)C)[N+](C)(C)C (stereo unspecified)
A) -1

Q) Repeat for the following compound: `C/C(=N/NC(=S)N1CCCCCC1)c1cccc(/C(C)=N\NC(=S)N2CCCCCC2)n1`
A) 15

Q) Continue with `CCC(=O)OCCn1c2nc(=O)[nH]c(=O)c-2nc2cc(C)c(C)cc21`
A) 35

Q) Continue with Cc1c(C(Cc2ccccc2N(C)C(=O)/C=C\C(=O)O)c2c[nH]c3ccccc23)c2ccccc2n1C (stereo unspecified)
A) 30

----------
Assay: NCI Yeast Anticancer Drug Screen. Data for the rad18 strain (AID 177)
Details: S. cerevisiae rad18 mutant growth inhibition; at 3.7 µM
The panel holds about 79,000 compounds, 15% with a hit somewhere; the sample as a whole holds those more often. Activity calls are given as the source filed them. Rule as the data show it: active = growth inhibition above about 70%; inactive = the rest.
Please answer using one outcome listed in label 1 = active, label 0 = inactive

Q) Please share the test call associated with `NCCNc1ccc(NCCN)c2c1C(=O)c1c(O)ccc(O)c1C2=O` .
A) label 0

Q) Also need `O=C(OCC=C1CCCC1)c1cc([N+](=O)[O-])cc([N+](=O)[O-])c1` , thanks.
A) label 0

Q) Could you do the same for `COc1ccc2nc3c([N+](=O)[O-])ccc(NCCN(C)C)c3c(NCCN(C)C)c2c1` , please?
A) label 0

Q) Then COc1cc(C2SCC(=O)N2c2nnc(C(F)(F)F)s2)cc(OC)c1OC (stereo not drawn) ?
A) label 0

Q) What about `COP(=O)(OC)/C(=C\C1=CN(C(c2ccccc2)(c2ccccc2)c2ccccc2)CN1)NC=O` ?
A) label 0

Q) Now consider `O=C(O)c1ccccc1-c1ccccc1C(=O)Nc1ccc2c(c1)Cc1ccccc1-2` .
A) label 0

Q) Another molecule: `CN1Cc2ccccc2/C=C\c2ccccc21`
A) label 0

Q) Next record, please: `O=C(NCCCNCCCNC(=O)c1cc(-c2ccccc2)nc2ccccc12)c1cc(-c2ccccc2)nc2ccccc12`
A) label 0

Q) Record: COc1cc(CC2CC(c3ccc4c(c3)OCO4)OC2=O)cc(OC)c1OC (stereo not drawn)
A) label 0

Q) Then this molecule: CCCCCCCCCCCCCCCCCCN(C)CC(COP(=O)([O-])OCC[N+](C)(C)C)OC (stereo not drawn)
A) label 0

Q) Could you do the same for `CSC1=NNC(SC)=NN1` , please?
A) label 0

Q) Consider next the molecule `NC(=O)NN=C(CS)CS` in the same way.
A) label 0

Q) Item: `O=[N+]([O-])/C=C/c1ccc2ccccc2c1`
A) label 0

Q) Item: `BrCc1cccc2ccc3cccc(CBr)c3c12`
A) label 0

Q) Same thing, different molecule: `CCS(=O)(=O)c1ccc(/C=C/C=N/NC(=S)NCC(C)C)cc1`
A) label 0

Q) And what about the molecule `CN(C)c1ccc(C(C#N)=C(C#N)C#N)cc1` ?
A) label 0

Q) `CC(C)(Br)C(=O)/C=C/c1ccc(Cl)c(Cl)c1` ?
A) label 0

Q) Ok, now `Cn1c(N)nc(-c2ccc(Cl)cc2)c1SSc1c(-c2ccc(Cl)cc2)nc(N)n1C`
A) label 0

Q) Let us now turn to `CC(C)[N+]([O-])(CCCNc1c2ccccc2nc2cccc([N+](=O)[O-])c12)C(C)C`
A) label 1

Q) Next entry: `Cc1ccc(S/N=C\c2ccccc2O)cc1`
A) label 0

Q) Next entry: `CCCCCCCCCCCCCCCCCCNC`
A) label 0

Q) And then `O=C1C=CC(=O)N1c1ccc2c(c1)Cc1cc(NC(=O)C(F)(F)F)ccc1-2` , what is it?
A) label 0

Q) Same lookup for `Cc1ccc(S(=O)(=O)NC(=O)NC2=NC(C)(C)N(c3ccc(Cl)c(Cl)c3)C(N)=N2)cc1` , please.
A) label 0

----------
Assay: NCI Yeast Anticancer Drug Screen. Data for the bub3 strain (AID 167)
Details: S. cerevisiae bub3 mutant strain, at 100.0 µM
The panel holds about 79,000 compounds, 15% with a hit somewhere; the sample as a whole holds those more often. Activity calls are given as the source filed them. No stated cut-off is given here; in the data, active means growth inhibition above about 70%; inactive means the rest.
Please state which outcome applies, choosing from label 1 = active, label 0 = inactive

Q) Dear colleague, could you share the recorded outcome for `Oc1ccc2ccccc2c1C(c1ccc(Cl)cc1)c1c(O)ccc2ccccc12` when you have a moment?
A) label 1

Q) And what about the compound `O=C(NCCCCNCCCNC(=O)c1cc(-c2ccccc2)nc2ccccc12)c1cc(-c2ccccc2)nc2ccccc12` ?
A) label 1

Q) Now consider `Cc1cc(O)cc(O)c1N=Nc1ccc([N+](=O)[O-])cc1` .
A) label 0

Q) Continue with `Cn1c(=O)c(-c2ccccc2)c(N=[N+]=[N-])c2ccccc21`
A) label 1

Q) Repeat for the following compound: `CC(=O)Cc1ccc[cH-]1.[Fe+2].c1cc[cH-]c1`
A) label 0

----------
Assignment: determine reported growth inhibition for the given compounds.
Assay: NCI Yeast Anticancer Drug Screen. Data for the cln2 rad14 strain (AID 165);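 further: 0% = growth equal to vehicle treated cultures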
Conditions: S. cerevisiae cln2 rad14 strain, at 5.0 µM (retest, dose inferred, filed as 0.5), stronger effect = higher value
This is part of a sample that, as a whole, favours compounds with a hit. Of some 79,000 tested, about 15% had one in any assay.
Response body: numeric value in %, unit text excluded.

Q) For the compound shown here, `O=[N+]([O-])/C=C/c1ccc2ccccc2c1` , give the reported growth inhibition.
A) 98

Q) Similarly, `Cc1ccc(S/N=C\c2ccccc2O)cc1` ?
A) -58

Q) Input `S=C(Nc1ccc(Cl)c(Cl)c1)SCc1ccc2c(c1)OCO2`
A) 5

Q) Lookup `COc1ccccc1/C=C1\Sc2scc(-c3cccc([N+](=O)[O-])c3)[n+]2C1=O`
A) 15

Q) Another compound to look at: `Cc1ccc(NN(NC(=O)OC(C)C)C(=O)OC(C)C)cc1`
A) 14

Q) What do we get for `O=C(NNc1ccnc2cc(Cl)ccc12)/C(=C\c1ccccc1Cl)NC(=O)c1ccccc1` ?
A) 8

----------
Assay: NCI Yeast Anticancer Drug Screen. Data for the rad50 strain (AID 155);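 further: 0% = growth of vehicle-only cultures of the same strain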
Conditions: S. cerevisiae rad50 strain growth inhibition; at 50.0 µM (retest, dose inferred, filed as 5.0)
The panel holds about 79,000 compounds, 15% with a hit somewhere; the sample as a whole holds those more often. Active and inactive are the calls of the source. Cut-off read from the data, not from the text of the source: active = growth inhibition above about 70%; inactive = the rest.
Your reply should match one of these outcome classes. yes (active), no (inactive)

Q) Identify the outcome logged in this assay for the compound shown: `[O-][n+]1c2ccc(O)cc2nc2ccc(Br)cc21`
A) yes

Q) Also need `CC(=O)N/N=C/C(C)(C)C(C)(C)/C=N/NC(C)=O` , thanks.
A) no

Q) What about `COC(=O)CSSCc1ccc([N+](=O)[O-])cc1` ?
A) yes

Q) Next entry: `Cc1cc(S(=O)(=O)/N=C(/NN)NNc2cccc(C(F)(F)F)n2)c(S)cc1Cl`
A) no

Q) Param item: COc1cc(C2SCC(=O)N2c2ccc(-c3ccc(-n4c(-c5ccccc5)nc5ccccc5c4=O)cc3)cc2)cc(OC)c1OC (stereo not drawn)
A) no

Q) Now try `Cc1nc(-[n+]2nc(-c3ccncc3)nn2-c2ccccc2)sc1C` .
A) no

Q) Also, `CCN(CC)CCNc1ccc([N+](=O)[O-])c2nc3ccc(OC)cc3c(N)c12` please.
A) yes

Q) Then what about the compound `COc1ccc(N=C2C(=O)Nc3ccc(Br)cc32)cc1` ?
A) no

Q) Input O=C(O)C1OC1(c1cccc(Cl)c1)c1ccccc1Cl (stereo not drawn)
A) no

Q) Field entry: `Cc1c(C2=C(Br)C(=O)N(C)C2=O)c(=O)n(C)c(=O)n1C`
A) no

Q) What about this compound? `Oc1c(Br)cc(Br)cc1C1CCCCC1`
A) yes

Q) // next record `O=C(NNc1ccnc2cc(Cl)ccc12)/C(=C\c1ccccc1Cl)NC(=O)c1ccccc1`
A) no

Q) Also `CSC(=S)N/N=C(\C)c1cccc(C)n1` ?
A) yes

Q) Follow-up entry: `COC(=O)c1ccc([N+](=O)[O-])c(O)c1`
A) no

Q) Now try `CN1Cc2ccccc2/C=C\c2ccccc21` .
A) yes

Q) Param item: `CC(=O)ON1C(=O)c2cccc3cccc(c23)C1=O`
A) yes

Q) Now give it for `FC(F)(F)c1nc2nc(Cl)c(Cl)nc2n1CCCN1CCOCC1` too.
A) no

Q) Same question for `CC(=O)OCc1ccc(O)c(C=O)c1` please.
A) no

Q) Now the same for `CCN(CC)C(=S)N/N=C(/C)c1cccc(/C(C)=N\NC(=S)N(CC)CC)n1`
A) yes

Q) Query `O=C(CC(=O)n1nc(-c2ccccc2)c(N=Nc2ccccc2C(=O)O)c1-c1ccccc1)Nc1ccc(Cl)cc1` next
A) no

Q) Next entry: `CC/C(=C(\c1ccccc1)c1ccc(OCCN(C)C)cc1)c1ccccc1`
A) yes

Q) Can you check `O=[N+]([O-])/C=C/c1ccc2ccccc2c1` next?
A) yes

Q) # iterate: `CC(C)(C)c1nc2c(o1)C(=O)c1ccccc1C2=O`
A) yes
